# tested on: Muscarinic acetylcholine receptor M2 (Homo sapiens)
# test description: Ability to displace [3H]N-methylscopolamine binding to M2 human recombinant muscarinic receptor in CHO cells at concentration 10 uM
# Type: cell-based
Below, each of the compounds is paired with its reported inhibition value.

| compound | inhibition |
| --- | --- |
| Oc1ccc(-c2cc(/C=C3\CN4CCC3CC4)on2)cc1O | 7% |
| CC(C)(C)OC(=O)Nc1ccc(-c2cc(/C=C3\CN4CCC3C4)on2)cc1 (stereo not drawn) | 53% |
| COc1ccc(-c2cc(/C=C3\CN4CCC3C4)on2)cc1 (stereo not drawn) | 24% |
| COc1ccc(-c2cc(/C=C3/CN4CCC3CC4)on2)cc1OC | 71% |
| COc1ccc(-c2cc(/C=C3\CN4CCC3CC4)on2)cc1OC | 22% |
| Oc1ccc(-c2cc(/C=C3/CN4CCC3C4)on2)cc1O (stereo not drawn) | 9% |
| C(=C1\CN2CCC1CC2)/c1cc(-c2ccccc2)no1 | 38% |
| Oc1ccc(-c2cc(/C=C3\CN4CCC3CC4)on2)cc1 | 7% |
| Nc1ccc(-c2cc(/C=C3\CN4CCC3CC4)on2)cc1 | 5% |
| Oc1ccc(-c2cc(/C=C3/CN4CCC3CC4)on2)cc1 | 17% |
| C(=C1/CN2CCC1CC2)/c1cc(-c2ccccc2)no1 | 26% |
| Nc1ccc(-c2cc(/C=C3/CN4CCC3C4)on2)cc1 (stereo not drawn) | 4% |
| N#Cc1ccc(-c2cc(/C=C3\CN4CCC3CC4)on2)cc1 | 32% |
